# protocol-details: Plasma concentration in mouse model of CFA-induced pain at 30 mg/kg, po during Hargreaves test
# Assay type: ADME, organism-based
# assay-setup: in vivo
readout-kind: concentration (µM)

{"columns": ["given-smiles", "readout-number"],
 "data": [
  ["CS(=O)(=O)NC(=O)c1cc(C2CC2)c(OCC2CCN(Cc3cc(C(F)(F)F)ccc3Cl)CC2)cc1F", 16.1]
]}

----------
# tested-target: Sodium channel protein type 5 subunit alpha (Homo sapiens, UniProt Q14524)
# Sequence (Q14524 whole entry): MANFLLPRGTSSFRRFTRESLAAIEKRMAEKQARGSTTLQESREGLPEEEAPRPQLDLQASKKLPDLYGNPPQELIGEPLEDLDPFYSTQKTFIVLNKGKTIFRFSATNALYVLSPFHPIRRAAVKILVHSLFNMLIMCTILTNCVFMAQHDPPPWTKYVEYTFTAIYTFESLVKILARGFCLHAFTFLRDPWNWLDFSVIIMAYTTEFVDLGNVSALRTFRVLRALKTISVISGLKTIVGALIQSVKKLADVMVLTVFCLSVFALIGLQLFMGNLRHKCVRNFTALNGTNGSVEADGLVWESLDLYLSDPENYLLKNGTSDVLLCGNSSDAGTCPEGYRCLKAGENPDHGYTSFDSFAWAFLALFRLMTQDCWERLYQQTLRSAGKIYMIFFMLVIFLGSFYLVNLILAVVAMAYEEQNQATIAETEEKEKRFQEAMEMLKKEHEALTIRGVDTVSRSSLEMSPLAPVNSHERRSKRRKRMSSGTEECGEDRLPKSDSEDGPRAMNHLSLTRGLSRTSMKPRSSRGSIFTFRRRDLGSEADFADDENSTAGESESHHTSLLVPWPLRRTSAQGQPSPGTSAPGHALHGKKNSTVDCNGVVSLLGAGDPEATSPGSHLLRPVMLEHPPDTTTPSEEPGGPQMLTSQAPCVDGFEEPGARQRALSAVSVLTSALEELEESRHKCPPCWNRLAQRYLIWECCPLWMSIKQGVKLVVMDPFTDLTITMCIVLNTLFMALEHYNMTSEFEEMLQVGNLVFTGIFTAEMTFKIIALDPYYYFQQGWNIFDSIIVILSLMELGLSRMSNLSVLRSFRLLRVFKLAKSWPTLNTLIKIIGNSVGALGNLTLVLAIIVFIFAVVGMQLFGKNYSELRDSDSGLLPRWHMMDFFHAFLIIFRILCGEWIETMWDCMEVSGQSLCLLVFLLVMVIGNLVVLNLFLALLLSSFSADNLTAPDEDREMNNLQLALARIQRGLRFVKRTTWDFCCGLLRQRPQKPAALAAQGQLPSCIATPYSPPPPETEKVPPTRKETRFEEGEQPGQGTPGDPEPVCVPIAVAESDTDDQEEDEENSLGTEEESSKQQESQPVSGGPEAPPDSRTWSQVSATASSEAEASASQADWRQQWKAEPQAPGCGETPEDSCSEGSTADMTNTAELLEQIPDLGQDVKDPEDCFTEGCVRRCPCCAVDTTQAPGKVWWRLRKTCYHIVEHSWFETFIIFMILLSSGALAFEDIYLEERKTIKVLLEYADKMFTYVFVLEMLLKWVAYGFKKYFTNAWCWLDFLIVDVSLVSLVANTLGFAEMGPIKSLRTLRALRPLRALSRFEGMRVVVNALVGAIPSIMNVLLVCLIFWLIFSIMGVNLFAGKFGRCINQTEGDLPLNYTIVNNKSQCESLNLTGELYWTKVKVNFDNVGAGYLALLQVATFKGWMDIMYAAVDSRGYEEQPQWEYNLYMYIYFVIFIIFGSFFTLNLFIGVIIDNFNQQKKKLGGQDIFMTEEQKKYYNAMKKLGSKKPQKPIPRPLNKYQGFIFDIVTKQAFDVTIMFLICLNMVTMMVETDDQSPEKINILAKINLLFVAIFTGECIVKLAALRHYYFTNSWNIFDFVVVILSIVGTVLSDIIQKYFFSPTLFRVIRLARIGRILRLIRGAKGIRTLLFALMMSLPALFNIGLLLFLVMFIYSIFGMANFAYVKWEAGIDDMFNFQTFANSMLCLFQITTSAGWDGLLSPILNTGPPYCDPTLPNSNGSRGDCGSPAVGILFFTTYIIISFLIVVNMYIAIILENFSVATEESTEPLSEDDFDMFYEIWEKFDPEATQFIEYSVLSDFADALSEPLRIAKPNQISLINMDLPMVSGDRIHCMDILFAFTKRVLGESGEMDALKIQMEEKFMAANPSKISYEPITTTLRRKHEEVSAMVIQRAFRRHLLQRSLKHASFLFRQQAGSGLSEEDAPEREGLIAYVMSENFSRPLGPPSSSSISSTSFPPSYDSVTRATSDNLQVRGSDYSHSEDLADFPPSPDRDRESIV
# protocol-details: Inhibition of human Nav1.5 expressed in HEK293 cells by electrophysiology assay
# Assay type: cell-based
# assay-setup: hek293
pIC50: −log10 of the molar value.
readout-kind: pIC50

{"columns": ["given-smiles", "tested-target", "result"],
 "data": [
  ["COc1cc(-c2cc(F)cc(Cl)c2)c(F)cc1-n1c(=O)ccc2cc(S(=O)(=O)Nc3ccon3)ccc21", "Sodium channel protein type 5 subunit alpha (Homo sapiens, UniProt Q14524)", "< 4.85"]
]}
